Values from patent US20190351049A1

# key: entry, value: Kd
- assayed-target: MERS RBD-hFc (MERS-CoV (isolate EMC/2012))
- protocol-text: SPR (Biacore), hybridoma supernatant antibody captured, MERS RBD-hFc as analyte
measured-metric: Kd (nM)

H2aM15287N (antibody, V domains shown) VH: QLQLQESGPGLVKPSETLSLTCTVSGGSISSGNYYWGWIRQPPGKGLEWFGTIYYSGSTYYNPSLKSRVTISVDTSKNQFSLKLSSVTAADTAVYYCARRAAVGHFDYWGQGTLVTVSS VL: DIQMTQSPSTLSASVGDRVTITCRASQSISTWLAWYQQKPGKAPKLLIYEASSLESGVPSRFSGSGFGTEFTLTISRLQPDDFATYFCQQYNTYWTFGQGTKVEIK	0.245
H2bM15292N (antibody, V domains shown) VH: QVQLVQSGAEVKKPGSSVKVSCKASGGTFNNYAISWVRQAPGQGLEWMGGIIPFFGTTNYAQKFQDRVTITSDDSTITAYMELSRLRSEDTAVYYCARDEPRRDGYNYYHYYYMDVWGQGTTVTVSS VL: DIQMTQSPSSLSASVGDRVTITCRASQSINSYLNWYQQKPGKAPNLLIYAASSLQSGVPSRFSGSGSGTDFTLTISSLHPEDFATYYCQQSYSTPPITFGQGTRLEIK	0.593
H2aM15278N (antibody, V domains shown) VH: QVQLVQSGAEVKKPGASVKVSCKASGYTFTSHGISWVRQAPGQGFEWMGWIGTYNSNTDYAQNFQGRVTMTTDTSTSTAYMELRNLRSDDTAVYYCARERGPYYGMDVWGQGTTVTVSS VL: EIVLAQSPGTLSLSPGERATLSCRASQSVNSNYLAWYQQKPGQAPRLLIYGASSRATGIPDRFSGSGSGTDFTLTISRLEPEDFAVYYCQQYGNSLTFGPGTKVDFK	2.05
